Test: Levels of LOU064 in mouse tissues (blood, brain, CSF)
Format: in vivo
Conditions: C57BL/6, mouse, whole blood, oral; 30 mg/kg p.o. b.i.d., 5 h; read-out: Levels of LOU064, Blood
Experimental: The compound levels in total brain homogenate are very low and mainly detectable at the early timepoint. Similarly, the levels in cerebrospinal fluid (CSF) are low. Blood, brain and CSF levels of LOU064 after oral dosing of 3 and 30 mg/kg b.i.d. The LLOQ were 0.2 nM in blood, […] in brain homogenate and 0.5 nM in CSF. Shown are averages ±SD from 4 animals for the 1 h timepoints and from 3 animals for the 5 and 8 h timepoints. […]
reportedProperty: concentration at 5 h (nM)
One number for each entry, in nM.

Given item `C=CC(=O)N(C)CCOc1c(N)ncnc1-c1cc(F)cc(NC(=O)c2ccc(C3CC3)cc2F)c1C` , the value recorded as its concentration at 5 h is 19.4

----------
assay: Levels of LOU064 in mouse tissues (blood, brain, CSF); assay type: in vivo; conditions: C57BL/6, mouse, CSF, oral; 3 mg/kg p.o. b.i.d., 8 h; read-out: Levels of LOU064, CSF
reportedProperty: concentration at 8 h

Given item `C=CC(=O)N(C)CCOc1c(N)ncnc1-c1cc(F)cc(NC(=O)c2ccc(C3CC3)cc2F)c1C` , the value recorded as its concentration at 8 h is < 0.5 nM

----------
assay: Levels of LOU064 in mouse tissues (blood, brain, CSF); assay type: in vivo; settings: C57BL/6, mouse, CSF, oral; 3 mg/kg p.o. b.i.d., 1 h; read-out: Levels of LOU064, CSF
reportedProperty: concentration at 1 h (nM)
One number for each entry, in nM.

Given item C=CC(=O)N(C)CCOc1c(N)ncnc1-c1cc(F)cc(NC(=O)c2ccc(C3CC3)cc2F)c1C [LOU064] , the value recorded as its concentration at 1 h is 3
